Data provenance: ChEMBL document CHEMBL1157348

Tested Target: Histamine H3 receptor (Rattus norvegicus, UniProt Q9QYN8)
Sequence (Q9QYN8 whole entry): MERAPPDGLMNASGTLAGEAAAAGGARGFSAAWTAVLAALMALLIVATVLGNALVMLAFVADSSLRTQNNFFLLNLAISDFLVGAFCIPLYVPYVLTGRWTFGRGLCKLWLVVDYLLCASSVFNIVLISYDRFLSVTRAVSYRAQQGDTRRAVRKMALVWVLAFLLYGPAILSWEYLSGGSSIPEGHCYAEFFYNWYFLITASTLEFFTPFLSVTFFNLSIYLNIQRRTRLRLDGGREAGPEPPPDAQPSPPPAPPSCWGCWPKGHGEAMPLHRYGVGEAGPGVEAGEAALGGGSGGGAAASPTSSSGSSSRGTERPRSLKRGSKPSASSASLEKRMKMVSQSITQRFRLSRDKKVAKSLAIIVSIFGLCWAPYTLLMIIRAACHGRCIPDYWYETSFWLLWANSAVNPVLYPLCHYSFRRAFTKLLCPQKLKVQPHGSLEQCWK
Protocol Details: Displacement of [3H]NAMH from histamine H3 receptor in rat cortex
Conditions: read-out: Ki
Measurement Kind: log10 Ki (log10 of the value in nM)
Response schema: value (number) is log10 of Ki in units of nM.

C[C@H]1[C@H]2CC[C@H]3[C@@H]4CC=C5C[C@@H](N(C)C(=O)N(C)C)CC[C@]5(C)[C@H]4CC[C@]23CN1C ... 2.47
CCS(=O)(=O)N(C)[C@H]1CC[C@@]2(C)C(=CC[C@H]3[C@@H]4CC[C@@H]5[C@H](C)N(C)C[C@@]54CC[C@@H]32)C1 ... 2.15
COC(=O)N(C)[C@H]1CC[C@@]2(C)C(=CC[C@H]3[C@@H]4CC[C@@H]5[C@H](C)N(C)C[C@@]54CC[C@@H]32)C1 ... 2.41
CC[C@@H](C)[C@@H](N)C(=O)N(C)[C@H]1CC[C@@]2(C)C(=CC[C@H]3[C@@H]4CC[C@@H]5[C@H](C)N(C)C[C@@]54CC[C@@H]32)C1 ... 0.46
C[C@H]1[C@H]2CC[C@H]3[C@@H]4CC=C5C[C@@H](N(C)c6ccc(C#N)cc6)CC[C@]5(C)[C@H]4CC[C@]23CN1C ... 1.38

Consider now this further compound.
Prompt: Can you share its log10 Ki? I mean this compound: C[C@H]1[C@H]2CC[C@H]3[C@@H]4CC=C5C[C@@H](N(C)S(=O)(=O)N(C)C)CC[C@]5(C)[C@H]4CC[C@]23CN1C
Response: 2.38

----------
Protocol Details: Drug level in rat blood at 1 mg/kg, ip after 24 hrs
Type: ADME, organism-based
Set-up: dose 1 mg/kg, route intraperitoneal
Conditions: read-out: Drug uptake
Measurement Kind: concentration at 24 h

Prompt: Can you share its concentration at 24 h? I mean this molecule: C[C@H]1[C@H]2CC[C@H]3[C@@H]4CC=C5C[C@@H](N(C)C)CC[C@]5(C)[C@H]4CC[C@]23CN1C [CONESSINE]
Response: 102 ng/mL

----------
Protocol Details: Drug level in rat blood at 1 mg/kg, ip after 5 hrs
Format: ADME, organism-based
Set-up: dose 1 mg/kg, route intraperitoneal
Conditions: read-out: Drug uptake
Measurement Kind: concentration at 5 h (ng/mL)
Value expressed in ng/mL; do not type the unit.

Prompt: Can you share its concentration at 5 h? I mean this compound: C[C@H]1[C@H]2CC[C@H]3[C@@H]4CC=C5C[C@@H](N(C)C)CC[C@]5(C)[C@H]4CC[C@]23CN1C
Response: 306

----------
Protocol Details: Drug level in rat brain at 1 mg/kg, ip after 5 hrs
Assay type: ADME, organism-based
Parameters: dose 1 mg/kg, route intraperitoneal
Conditions: read-out: Drug uptake
Measurement Kind: concentration at 5 h (ng/g)
Value expressed in ng/g; do not type the unit.

Prompt: Can you share its concentration at 5 h? I mean this compound: C[C@H]1[C@H]2CC[C@H]3[C@@H]4CC=C5C[C@@H](N(C)C)CC[C@]5(C)[C@H]4CC[C@]23CN1C
Response: 6800

----------
Protocol Details: Inhibition of CYP enzyme
Type: ADME
Measurement Kind: IC50

Prompt: Can you share its IC50? I mean this compound: CN[C@@H](C(=O)N(C)[C@H]1CC[C@@]2(C)C(=CC[C@H]3[C@@H]4CC[C@@H]5[C@H](C)N(C)C[C@@]54CC[C@@H]32)C1)C(C)C
Response: > 10 µM
